Biological target: 5-hydroxytryptamine receptor 2C (Homo sapiens)
Sequence (P28335 whole entry): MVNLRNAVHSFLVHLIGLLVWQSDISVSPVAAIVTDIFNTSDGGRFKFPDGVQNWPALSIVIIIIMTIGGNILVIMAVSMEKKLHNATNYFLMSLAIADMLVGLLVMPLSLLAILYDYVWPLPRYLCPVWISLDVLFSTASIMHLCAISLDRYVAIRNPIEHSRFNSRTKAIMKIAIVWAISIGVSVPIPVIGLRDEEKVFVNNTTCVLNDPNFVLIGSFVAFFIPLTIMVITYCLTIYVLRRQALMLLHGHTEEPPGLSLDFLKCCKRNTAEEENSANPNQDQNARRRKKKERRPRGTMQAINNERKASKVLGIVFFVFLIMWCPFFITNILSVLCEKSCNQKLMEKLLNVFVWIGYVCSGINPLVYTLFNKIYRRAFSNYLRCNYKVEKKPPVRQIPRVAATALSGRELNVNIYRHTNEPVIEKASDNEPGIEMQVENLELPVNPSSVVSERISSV
Just a reminder that ties go to label 0: only Ki strictly below 0.2 µM counts as label 1.

> print(dat)
                                   molecule  class.name
1  COc1cc2c(cc1OC)-c1c(OC)c(OC)cc3c1[C@H](C2)N(C)CC3     label 0

API: the following record is the query input.
Ask | Strictly below 0.2 µM: is that where Ki of `CCOc1cc2c3c(c1OC)-c1cc(OC)c(OC)cc1C[C@@H]3N(C)CC2` sits?
Reply | label 0

====

molecular target: UniProt P41595
Sequence (P41595 whole entry): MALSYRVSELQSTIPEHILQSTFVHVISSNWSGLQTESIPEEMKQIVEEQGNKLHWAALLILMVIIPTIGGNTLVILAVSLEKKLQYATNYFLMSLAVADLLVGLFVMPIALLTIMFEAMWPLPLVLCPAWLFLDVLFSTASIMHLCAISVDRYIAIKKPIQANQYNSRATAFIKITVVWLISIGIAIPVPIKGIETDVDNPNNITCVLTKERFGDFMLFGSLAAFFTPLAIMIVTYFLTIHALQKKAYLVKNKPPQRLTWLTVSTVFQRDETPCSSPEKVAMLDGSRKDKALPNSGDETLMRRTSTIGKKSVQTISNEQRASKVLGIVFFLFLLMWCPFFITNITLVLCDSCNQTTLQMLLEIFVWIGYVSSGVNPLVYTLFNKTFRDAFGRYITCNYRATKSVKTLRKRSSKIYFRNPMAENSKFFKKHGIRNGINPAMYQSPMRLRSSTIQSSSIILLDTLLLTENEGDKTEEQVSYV
Give pKi for every item shown.
Numbers only, as −log10 of the molar value.

> print(dat)
                                   compound  measurement.type  quantitative.readout
1  CCC(C)Oc1cc2c3c(c1OC)-c1cc(OC)c(OC)cc1C[C@@H]3N(C)CC2 (some centres not stated)               pKi                  7.02
2  CCCCCOc1cc2c(cc1OC)-c1c(OC)c(OC)cc3c1[C@H](C2)N(C)CC3               pKi                  7.24
3  COc1cc2c(cc1OCCF)C[C@H]1c3c(cc(OC)c(OC)c3-2)CCN1C               pKi                  7.32
4  C=CCOc1cc2c3c(c1OC)-c1cc(OC)c(OC)cc1C[C@@H]3N(C)CC2               pKi                  7.80
5  CCC(C)Oc1cc2c(cc1OC)-c1c(OC)c(OC)cc3c1[C@H](C2)N(C)CC3 (some centres not stated)               pKi                  7.66
6  COc1cc2c(cc1OC)-c1c(OC)c(OC)cc3c1[C@H](C2)N(C)CC3 [GLAUCINE]               pKi                  6.92
7  CCCCC(C)Oc1cc2c3c(c1OC)-c1cc(OC)c(OC)cc1C[C@@H]3N(C)CC2 (some centres not stated)               pKi                  7.09
8  COc1cc2c(cc1OC)-c1c(OC)c(OCC3CC3)cc3c1[C@H](C2)N(C)CC3               pKi                  7.40

For every item below, please supply its pKi.
1. COc1cc2c(cc1OCC1CC1)C[C@H]1c3c(cc(OC)c(OC)c3-2)CCN1C
2. CCCC(C)Oc1cc2c(cc1OC)-c1c(OC)c(OC)cc3c1[C@H](C2)N(C)CC3 (some centres not stated)
3. COc1cc2c(cc1OC)-c1c(OC)c(OCCF)cc3c1[C@H](C2)N(C)CC3
4. CCCCOc1cc2c3c(c1OC)-c1cc(OC)c(OC)cc1C[C@@H]3N(C)CC2
5. COc1cc2c(cc1OC(C)C)C[C@H]1c3c(cc(OC)c(OC)c3-2)CCN1C
6. CCCC(C)Oc1cc2c3c(c1OC)-c1cc(OC)c(OC)cc1C[C@@H]3N(C)CC2 (some centres not stated)
7. CCCCCCOc1cc2c3c(c1OC)-c1cc(OC)c(OC)cc1C[C@@H]3N(C)CC2

Reply |
[7.54, 8.00, 6.20, 7.82, 7.35, 7.60, 6.98]

Parameter requested: pKi. Apply to each item below.
1. COc1cc2c(cc1OC)-c1c(OC)c(OC(C)C)cc3c1[C@H](C2)N(C)CC3
2. CCOc1cc2c(cc1OC)-c1c(OC)c(OC)cc3c1[C@H](C2)N(C)CC3
3. CCOc1cc2c3c(c1OC)-c1cc(OC)c(OC)cc1C[C@@H]3N(C)CC2
4. CCCCCOc1cc2c3c(c1OC)-c1cc(OC)c(OC)cc1C[C@@H]3N(C)CC2

Reply |
[6.81, 7.10, 6.82, 7.33]

Batch request: pKi for each of the following compounds.
1. CCCCOc1cc2c(cc1OC)-c1c(OC)c(OC)cc3c1[C@H](C2)N(C)CC3
2. C=CCOc1cc2c(cc1OC)-c1c(OC)c(OC)cc3c1[C@H](C2)N(C)CC3
3. COc1cc2c(cc1OCc1ccccc1)C[C@H]1c3c(cc(OC)c(OC)c3-2)CCN1C

Reply |
[7.25, 7.26, 6.72]

Provenance of the data: ChEMBL document CHEMBL5137112
